molecular target: Calpain I (porcine erythrocytes) (Sus scrofa)
Sequence (P35750 whole entry): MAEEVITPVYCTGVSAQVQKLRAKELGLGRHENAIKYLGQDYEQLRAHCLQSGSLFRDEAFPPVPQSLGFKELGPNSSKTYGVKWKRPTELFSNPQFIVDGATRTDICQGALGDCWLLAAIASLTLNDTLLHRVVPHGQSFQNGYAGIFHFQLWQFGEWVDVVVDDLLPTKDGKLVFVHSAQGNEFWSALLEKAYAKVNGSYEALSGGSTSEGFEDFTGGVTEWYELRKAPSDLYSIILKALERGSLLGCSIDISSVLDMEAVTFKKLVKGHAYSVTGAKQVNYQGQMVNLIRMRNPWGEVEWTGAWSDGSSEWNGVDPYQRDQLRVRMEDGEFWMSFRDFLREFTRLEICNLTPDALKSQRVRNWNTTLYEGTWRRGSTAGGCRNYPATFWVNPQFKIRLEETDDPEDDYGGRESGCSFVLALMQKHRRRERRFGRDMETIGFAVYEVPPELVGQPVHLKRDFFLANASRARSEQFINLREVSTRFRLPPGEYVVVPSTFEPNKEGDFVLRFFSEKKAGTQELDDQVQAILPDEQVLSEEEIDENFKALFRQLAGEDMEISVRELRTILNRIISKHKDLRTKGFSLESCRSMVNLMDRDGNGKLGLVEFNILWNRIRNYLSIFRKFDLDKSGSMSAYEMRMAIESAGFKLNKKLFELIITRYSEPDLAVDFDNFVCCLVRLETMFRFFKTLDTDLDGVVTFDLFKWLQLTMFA
Sequence (P04574 whole entry partner): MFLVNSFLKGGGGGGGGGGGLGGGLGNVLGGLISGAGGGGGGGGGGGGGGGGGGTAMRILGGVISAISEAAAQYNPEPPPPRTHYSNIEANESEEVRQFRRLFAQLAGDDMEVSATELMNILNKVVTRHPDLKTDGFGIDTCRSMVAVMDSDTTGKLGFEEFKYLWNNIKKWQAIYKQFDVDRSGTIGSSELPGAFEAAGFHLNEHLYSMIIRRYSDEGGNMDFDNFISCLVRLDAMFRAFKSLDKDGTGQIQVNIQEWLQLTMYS
Counter-ions that a name gives are not always drawn.
Quick rule for you: Ki under 200 nM gets yes, anything else gets no.

Please indicate whether the reported Ki of CCNC(=O)C(=O)C(CC)NC(=O)C(CC(C)C)NC(=O)OC(C)(C)C (stereo not drawn) is strictly below 200 nM.
yes

Please indicate whether the reported Ki of CCCC(NC(=O)C(CC(C)C)NC(=O)C(N)Cc1ccccc1)C(=O)C(=O)NCC [D-Phe-L-Leu-L-Norvaline-CONH-Et.HCl] is strictly below 200 nM.
no

Please indicate whether the reported Ki of CCC(NC(=O)C(=O)C(Cc1ccccc1)NC(=O)C(CC(C)C)NC(=O)OCc1ccccc1)C(=O)OC (stereo not drawn) is strictly below 200 nM.
yes

Please indicate whether the reported Ki of CCCC(NC(=O)C(CC(C)C)NC(=O)C(N)Cc1ccccc1)C(=O)C(=O)NCC [L-Phe-L-Leu-L-Norvaline-CONH-Et.HCl] is strictly below 200 nM.
yes

Please indicate whether the reported Ki of COC(=O)C(C)NC(=O)C(=O)C(Cc1ccccc1)NC(=O)C(CC(C)C)NC(=O)OCc1ccccc1 (stereo not drawn) is strictly below 200 nM.
yes

Please indicate whether the reported Ki of COC(=O)[C@H](Cc1ccc(OC(C)(C)C)cc1)NC(=O)C(=O)C(Cc1ccccc1)NC(=O)[C@H](CC(C)C)NC(=O)OCc1ccccc1 (stereo partly drawn) is strictly below 200 nM.
no
